Target: Alpha-1D adrenergic receptor (Rattus norvegicus, UniProt P23944)
Test: Antagonistic affinity tested against isolated Rat Thoracic Aorta Alpha-1D adrenergic receptor
Type: functional, tissue-based
Settings: read-out: pA2 (converted)
Test readout: Kb (nM)

I = COc1cccc(OC)c1OCCNC[C@@H]1Oc2ccccc2O[C@H]1c1ccccc1
II = COc1cccc(OC)c1OCCNC[C@@H]1C[C@H](c2ccccc2)c2ccccc2O1
III = COc1cccc(OC)c1OCCNCC1Cc2ccccc2C(c2ccccc2)C1 (stereo not given)
IV = COc1cccc(OC)c1OCCNCC1CC(c2ccccc2)c2ccccc2C1=O (stereo not given)
V = COc1cccc(OC)c1OCCNCCOc1ccccc1Cc1ccccc1
Rank the compounds listed above in increasing order of Kb. Labels, requested order. II, IV, V, I, III

====

Biological target: Alpha-1D adrenergic receptor (Rattus norvegicus)
Sequence (P23944 whole entry): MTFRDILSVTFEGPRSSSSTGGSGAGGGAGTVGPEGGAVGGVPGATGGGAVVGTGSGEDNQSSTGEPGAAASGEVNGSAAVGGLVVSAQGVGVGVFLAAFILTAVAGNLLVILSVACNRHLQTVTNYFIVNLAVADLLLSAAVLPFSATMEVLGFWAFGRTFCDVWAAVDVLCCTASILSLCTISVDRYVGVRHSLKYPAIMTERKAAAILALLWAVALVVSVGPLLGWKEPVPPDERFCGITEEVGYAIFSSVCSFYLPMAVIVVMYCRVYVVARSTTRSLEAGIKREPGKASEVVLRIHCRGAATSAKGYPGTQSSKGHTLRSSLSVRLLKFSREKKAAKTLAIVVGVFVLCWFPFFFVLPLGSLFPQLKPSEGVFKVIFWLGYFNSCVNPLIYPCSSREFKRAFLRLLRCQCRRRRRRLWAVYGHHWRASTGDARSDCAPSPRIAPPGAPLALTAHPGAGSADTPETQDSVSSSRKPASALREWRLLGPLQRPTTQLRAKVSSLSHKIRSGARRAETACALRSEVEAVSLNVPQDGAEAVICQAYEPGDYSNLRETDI
Experiment: Antagonistic affinity tested against isolated Rat Thoracic Aorta Alpha-1D adrenergic receptor
Type: functional, tissue-based
Conditions: read-out: pA2 (converted)
Test readout: Kb (nM)

a = COc1cccc(OC)c1OCCNCC1CC(c2ccccc2)c2ccccc2S1 (stereo not drawn)
b = COc1cccc(OC)c1OCCNC[C@H]1C[C@H](c2ccccc2)c2ccccc2S1
c = COc1cccc(OC)c1OCCNCC1COc2ccccc2O1 (stereo not drawn)
Rank the 3 molecules: largest Kb first, smallest last. Labels, requested order. b, a, c
(b: 61.7 nM, a: 17.4 nM, c: 1.58 nM)

====

Target: Alpha-1B adrenergic receptor (Homo sapiens)
Sequence (P35368 whole entry): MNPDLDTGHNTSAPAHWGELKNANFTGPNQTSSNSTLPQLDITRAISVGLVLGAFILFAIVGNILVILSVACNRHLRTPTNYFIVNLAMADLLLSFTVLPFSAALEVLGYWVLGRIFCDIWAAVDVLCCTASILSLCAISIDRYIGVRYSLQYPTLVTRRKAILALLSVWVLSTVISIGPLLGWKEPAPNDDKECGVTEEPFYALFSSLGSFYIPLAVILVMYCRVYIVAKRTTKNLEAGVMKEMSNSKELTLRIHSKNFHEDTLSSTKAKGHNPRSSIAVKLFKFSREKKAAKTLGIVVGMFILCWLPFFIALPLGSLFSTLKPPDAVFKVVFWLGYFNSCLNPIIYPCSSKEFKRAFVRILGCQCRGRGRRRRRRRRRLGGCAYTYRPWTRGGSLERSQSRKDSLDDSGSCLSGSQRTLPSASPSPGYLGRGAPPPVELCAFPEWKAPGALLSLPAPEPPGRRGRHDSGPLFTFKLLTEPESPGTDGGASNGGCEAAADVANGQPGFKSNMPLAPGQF
Assay: Affinity constant on CHO cells expressing Human recombinant Alpha-1B adrenergic receptor
Test readout: Ki (nM)

{"columns": ["Compound", "Value units", "Ki"],
 "data": [
  ["COc1cccc(OC)c1OCCNCC1CC(c2ccccc2)c2ccccc2C1=O (configuration not stated)", "nM", 1.23],
  ["COc1cccc(OC)c1OCCNC[C@@H]1C[C@H](c2ccccc2)c2ccccc2O1", "nM", 0.0398],
  ["COc1cccc(OC)c1OCCNC[C@H]1C[C@H](c2ccccc2)c2ccccc2S1", "nM", 27.5]
]}

a = COc1cccc(OC)c1OCCNCC1Cc2ccccc2C(c2ccccc2)C1 (configuration not stated)
b = COc1cccc(OC)c1OCCNCCOc1ccccc1Cc1ccccc1
c = COc1ccccc1N1CCN(CCN2C(=O)CC3(CCCC3)CC2=O)CC1
d = COc1cccc(OC)c1OCCNCC1CC(c2ccccc2)c2ccccc2S1 (configuration not stated)
Hey, quick one: sort these by Ki, low to high? Labels, requested order. d, b, a, c

Source: ChEMBL document CHEMBL1135915
